The measurements presented in this section are drawn from PubChem BioAssay AID1508610.

- assay_target: G-protein coupled receptor 151 (Homo sapiens)
- assay_summary: GPR151 activator potency, dose response, cell-based (AID 1508610)
- stated_conditions: cell-based GPR151 activation reporter
Calls of active or inactive are those of the source. No rule for the calls is given here.
measured_metric: EC50

# example entries with known answers
C=CCn1c(C)cc(C2=NNC(=NCC)SC2)c1C ... > 28.7 µM (inactive)
O=C(NC1(C(F)(F)F)NC(=O)N(c2ccc(F)cc2)C1=O)c1ccncc1 (stereo unspecified) ... > 28 µM (inactive)
NC(=O)c1ccc(-c2ccc(N3CCOCC3)nc2)s1 ... > 25.9 µM (inactive)
COc1ccccc1N(CC(=O)Nc1ccccc1C(=O)NCC(C)C)S(C)(=O)=O ... > 28 µM (inactive)
CC(=O)c1ccc(OC(=O)c2cccc(Br)c2)cc1 ... > 25.9 µM (inactive)
Cc1ccc(C(=O)Nc2ncc([N+](=O)[O-])s2)cc1 ... > 31.4 µM (inactive)
O=C(O)c1cccc(COc2ccc3ccccc3c2)c1 ... > 28 µM (inactive)
Cc1ccc(S(=O)(=O)Cn2nnnc2CN2CCN(c3ccccc3F)CC2)cc1 ... > 28 µM (inactive)
Cc1ccc(C(=O)Nc2nc(Cl)c(C#N)s2)cc1 ... > 28.2 µM (inactive)
CN(C)CCN(C)C(=O)c1cccc(OC2CCN(C3CCSCC3)CC2)c1 ... > 28 µM (inactive)

Lab note: next compound to report on.
// query Quick one: give measured EC50 for "COc1ccc(-c2noc(-c3cc4ccc(OC)cc4oc3=O)n2)cc1"
// result > 28 µM (inactive)
